# EXPERIMENTAL SYSTEM: Nonstructural protein 3 (Zika virus, UniProt A0A024AXB9)
# Sequence (A0A024AXB9 whole entry): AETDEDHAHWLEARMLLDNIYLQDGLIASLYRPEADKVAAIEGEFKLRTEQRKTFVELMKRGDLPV
# ASSAY: Functional biochemical assay to identify treatments for viral infectious disease that targets Zika NS2B-NS3 protease. Utilizing a direct enzyme activity measurement method, reading the fluorescence intensity is used to characterize the relative potency of inhibitors as IC50.
# Set-up: species or system PRVABC59
pIC50: −log10 of the molar value.
Provide the reported pIC50 of each item.

Worked set:
Reported pIC50 ( `NCc1ccccc1C1CCN(C(=O)[C@@]23CNC[C@]2(C(F)(F)F)C3)CC1` ) = < 4.00

Item: `Cc1c(C(=O)Nc2cc(C(=O)N3CCCNC(=O)C3)ccn2)cc(C2CC2)n1C` | pIC50: < 4.60

Lab note: measured pIC50 of `CO[C@H](C)Cn1cc2c(C(=O)Nc3ccc4c(c3)CNC4)cc(Cl)cc2n1` was 6.44

Batch lookup, pIC50 per entry.
1. CN1C(=O)C[C@H](C(=O)Nc2cccc(CN)c2)[C@H]1c1ccc(Cl)c(Cl)c1
2. O=C(Nc1cc(Cl)cc(C(=O)Nc2ccc3c(c2)C(=O)NC3)c1)OCc1ccccc1
3. CCn1c(=O)c(N2CC[C@H](N3CCN(C)CC3)C2)nc2ccccc21
4. CC(C)[C@H](NC(=O)c1cc(Cl)cc(NC(=O)OCc2ccccc2)c1)C(=O)O
5. O=Cc1ccc(N2CCC(C(=O)NCCC3CCN(Cc4ccccc4)CC3)CC2)cc1
6. NCc1cccc(NC(=O)[C@H](NC(=O)OCc2ccccc2)c2ccc(Br)c(F)c2)c1

-- reply
1. < 4.00
2. < 4.00
3. < 4.00
4. < 4.00
5. < 4.30
6. 4.19

Form: compound = `CN(C)C(=O)[C@@H](NC(=O)OCc1ccccc1)c1ccc(OCc2ccccc2)cc1` ; pIC50 = < 4.00
